# ASSAY_OVERVIEW: Inhibition of Mycobacterium tuberculosis thymidylate kinase
READOUT_TYPE: pIC50
pIC50 (log units): -log10 of the concentration in mol/L.

Q: Look up and state reported pIC50 for `COc1cccc(-c2cc(SC)c(C#N)c(=O)[nH]2)c1`
Result: 5.82

====

# System: Mycobacterium tuberculosis
# ASSAY_OVERVIEW: Antitubercular activity against Mycobacterium tuberculosis H37Rv ATCC 27294 grown under 7H9/ glucose liquid culture in presence of BSA assessed as inhibition of all visible growth incubated for 7 to 14 days
# Assay type: functional
# STATED_CONDITIONS: time 7-14 day
READOUT_TYPE: MIC99 (µM)
Quick reminder: number only, in µM, skip the unit.

Please review the entries below; each comes with its answer.
| COMPOUND | MIC99, µM |
| --- | --- |
| CN1CCN(c2ccc3nc(SCc4cc([N+](=O)[O-])cc([N+](=O)[O-])c4)[nH]c(=O)c3c2)CC1 | 9.4 |
| O=c1[nH]c(SCc2cc([N+](=O)[O-])cc([N+](=O)[O-])c2)nc2ccc(F)cc12 | 6.25 |
| Cn1c(SCc2cc([N+](=O)[O-])cc([N+](=O)[O-])c2)nc2ccccc2c1=O | 3.13 |
| Cc1ccc2nc(SCc3cc([N+](=O)[O-])cc([N+](=O)[O-])c3)[nH]c(=O)c2c1 | 6.25 |
| O=c1[nH]c(SCc2cc([N+](=O)[O-])cc([N+](=O)[O-])c2)nc2ccccc12 | 1.56 |

Q: Tell me measured MIC99 for `O=c1[nH]c(SCc2cc([N+](=O)[O-])cc([N+](=O)[O-])c2)nc2ccc(Cl)cc12` please.
Result: 3.13

Q: Give me measured MIC99, please, for this compound: `O=c1[nH]c(SCc2cc([N+](=O)[O-])cc([N+](=O)[O-])c2)nc2ccc(N3CCOCC3)cc12`
Result: 3.13

Q: Answer with the recorded MIC99 for the compound listed here: `O=c1[nH]c(SCc2cc([N+](=O)[O-])cc([N+](=O)[O-])c2)nc2cc(Cl)ccc12`
Result: 25

Q: Return the recorded MIC99 value; entry: `O=c1[nH]c(SCc2cc([N+](=O)[O-])cc([N+](=O)[O-])c2)nc2ccc(Br)cc12`
Result: 37

====

# ASSAY_OVERVIEW: Inhibition of Mycobacterium tuberculosis thymidylate kinase in presence of ATP, dTMP, NADH and phosphoenol pyruvate by spectrophotometric assay
Label Fulfilled when IC50 is strictly below 100 µM; otherwise label Not fulfilled.

| COMPOUND | LABEL |
| --- | --- |
| CSc1nc(-c2cccc(Br)c2)c(C#N)c(=O)[nH]1 | Fulfilled |
| N#Cc1c(-c2cccc(Br)c2)nc(SCc2ccccc2)[nH]c1=O | Fulfilled |

Q: Consider `O=c1[nH]c(SCc2cc([N+](=O)[O-])cc([N+](=O)[O-])c2)nc2ccccc12` . Does its IC50 lie strictly below 100 µM?
Result: Not fulfilled

Q: Is IC50 of O=c1[nH]c([S+]([O-])Cc2cc([N+](=O)[O-])cc([N+](=O)[O-])c2)nc2ccccc12 (stereo not given) strictly below 100 µM?
Result: Not fulfilled

Q: Field: below-cutoff. Rule: recorded IC50 strictly less than 100 µM. Subject: `N#Cc1c(-c2cccc(Br)c2)nc(SCc2cc([N+](=O)[O-])cc([N+](=O)[O-])c2)[nH]c1=O`
Result: Fulfilled

====

# Test system: Mycobacterium tuberculosis
# ASSAY_OVERVIEW: Antitubercular activity against Mycobacterium tuberculosis H37Rv
# Type: functional
READOUT_TYPE: MIC (µM)
Please respond with the number in µM and leave the unit unwritten.

Q: Complete the entry with MIC for CCOC(=O)C1=C(NC(=O)c2c(F)c(F)c(F)c(F)c2F)OC2CN(CC)CCC12 (stereo not drawn)
Result: 0.69

Q: For the compound `O=C(CSc1nc2c(F)cccc2c(=O)[nH]1)NC1CCC(F)(F)CC1` , report MIC.
Result: 0.09

Q: Quote MIC reported for `O=C(CSc1nc2ccccc2c(=O)[nH]1)NC1CCCCC1` please.
Result: 0.3

Q: Provide measured MIC value, entry: CCOC(=O)C1=C(NC(=O)c2c(F)c(F)c(F)c(F)c2F)OC(C(N)=O)C1C (stereo not drawn)
Result: 0.5

====

MIC99 reference
# System: Mycobacterium tuberculosis
# ASSAY_OVERVIEW: Antitubercular activity against Mycobacterium tuberculosis H37Rv ATCC 27294 grown under 7H9/ glucose liquid culture in presence of BSA assessed as inhibition of all visible growth incubated for 7 to 14 days
# Type: functional
# STATED_CONDITIONS: time 7-14 day

| COMPOUND | STUDY_TARGET | MIC99 |
| --- | --- | --- |
| O=c1[nH]c(SCc2cc([N+](=O)[O-])cc([N+](=O)[O-])c2)nc2cccnc12 | Mycobacterium tuberculosis | > 50 µM |

Q: Provide MIC99, recorded with Mycobacterium tuberculosis, of `COc1cccc(CSc2nc3ccccc3c(=O)[nH]2)c1`
Result: > 50 µM

Q: Lab note: Mycobacterium tuberculosis assay, enter MIC99 for `Oc1nc(SCc2cccc(Cl)c2)nc2ccccc12` here
Result: > 50 µM

Q: For Mycobacterium tuberculosis, give the measured MIC99 of the entry `O=c1[nH]c(SCc2ccccc2)nc2ccccc12`
Result: > 50 µM

Q: Fill: MIC99 (Mycobacterium tuberculosis) for this compound `O=c1[nH]c(SCc2ccccc2Cl)nc2ccccc12`
Result: > 50 µM

Q: For Mycobacterium tuberculosis, give MIC99 of the listed compound: `O=c1[nH]c(SCc2ccccc2[N+](=O)[O-])nc2ccccc12`
Result: > 50 µM

====

# Tested on: Mycobacterium tuberculosis
# ASSAY_OVERVIEW: Antitubercular activity against Mycobacterium tuberculosis H37Rv
# Type: functional
Overview of recorded MIC for various molecules
Use µg/mL as the unit, but write only the number.

| COMPOUND | STUDY_TARGET | READOUT_TYPE | OBSERVED_MEASUREMENT |
| --- | --- | --- | --- |
| CC1CCN(Cc2c(O)ccc3oc4c5ccccc5oc(=O)c4c23)CC1 | Mycobacterium tuberculosis | MIC | 0.125 |

With those in mind, consider the next molecule.
Q: Give the observed MIC of `CCOC(=O)c1c(-c2ccccc2)oc2ccc(O)c(CN3CCC(C)CC3)c12` for Mycobacterium tuberculosis.
Result: 1
